// provenance: paper PMC7748285

target: AcrB (Escherichia coli, UniProt P31224)
Sequence (P31224 whole entry): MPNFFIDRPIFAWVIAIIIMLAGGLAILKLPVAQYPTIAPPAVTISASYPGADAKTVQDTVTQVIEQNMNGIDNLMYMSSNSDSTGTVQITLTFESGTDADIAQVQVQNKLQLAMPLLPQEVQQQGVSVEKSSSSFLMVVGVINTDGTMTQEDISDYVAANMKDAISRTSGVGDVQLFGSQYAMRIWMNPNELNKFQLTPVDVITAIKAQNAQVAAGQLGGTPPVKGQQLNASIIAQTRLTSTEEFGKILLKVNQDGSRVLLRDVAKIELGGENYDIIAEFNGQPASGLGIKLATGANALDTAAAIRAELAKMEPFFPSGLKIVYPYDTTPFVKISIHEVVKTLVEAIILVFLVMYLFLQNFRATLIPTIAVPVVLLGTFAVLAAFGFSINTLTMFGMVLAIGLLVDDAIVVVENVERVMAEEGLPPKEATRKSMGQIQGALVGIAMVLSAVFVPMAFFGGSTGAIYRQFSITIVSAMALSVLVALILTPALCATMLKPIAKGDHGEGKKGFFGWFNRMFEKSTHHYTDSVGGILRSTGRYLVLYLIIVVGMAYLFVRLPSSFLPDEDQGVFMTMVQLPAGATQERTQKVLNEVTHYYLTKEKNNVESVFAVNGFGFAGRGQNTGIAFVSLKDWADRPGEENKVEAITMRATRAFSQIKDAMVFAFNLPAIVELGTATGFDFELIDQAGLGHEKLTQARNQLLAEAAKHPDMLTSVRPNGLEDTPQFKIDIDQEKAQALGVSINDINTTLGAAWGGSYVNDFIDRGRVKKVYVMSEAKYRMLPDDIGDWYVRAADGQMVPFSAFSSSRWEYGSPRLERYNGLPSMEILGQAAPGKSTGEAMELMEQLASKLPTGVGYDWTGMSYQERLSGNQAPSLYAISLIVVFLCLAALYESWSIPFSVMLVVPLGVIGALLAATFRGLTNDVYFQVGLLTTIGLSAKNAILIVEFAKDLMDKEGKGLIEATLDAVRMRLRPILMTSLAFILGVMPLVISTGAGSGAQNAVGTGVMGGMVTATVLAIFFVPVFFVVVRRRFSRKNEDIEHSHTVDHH
Endpoint name: Kd (nM)
Write the value in nM as a bare number.

Provide the documented Kd with AcrB (Escherichia coli, UniProt P31224) as the system for OC(COc1ccc(C23CC4CC(CC(C4)C2)C3)cc1)CN1CCCCC1 (stereo not shown)
520
